MEASURE NAME: melting point

Examples with answers:
CSCC[C@H](NC(=O)CC[C@H](NS(=O)(=O)c1ccc(-c2ccc(N(C)C)cc2)cc1)C(=O)O)C(=O)O; 121 °C
O=C(CC[C@H](NS(=O)(=O)c1ccc(-c2ccccc2)cc1)C(=O)O)Nc1ccccc1; 234.5 to 235.5 °C
COc1ccc(CC(NS(=O)(=O)c2ccc(-c3ccc(N(C)C)cc3)cc2)C(=O)O)cc1OC (racemic) [Example 65]; > 230 °C (dec.)

Request: # query: melting point of entry O=C(CC[C@H](NS(=O)(=O)c1ccc(-c2ccccc2)cc1)C(=O)O)Nc1ccccc1Cl
Response: 187.5 to 188.5 °C

====

TESTED SYSTEM: stromelysin (MMP-3) (Homo sapiens, UniProt P08254)
Construct: enzymatic activity of the catalytic domains of human stromelysin and of neutrophil collagenase
Sequence (P08254 100-272 limits assumed): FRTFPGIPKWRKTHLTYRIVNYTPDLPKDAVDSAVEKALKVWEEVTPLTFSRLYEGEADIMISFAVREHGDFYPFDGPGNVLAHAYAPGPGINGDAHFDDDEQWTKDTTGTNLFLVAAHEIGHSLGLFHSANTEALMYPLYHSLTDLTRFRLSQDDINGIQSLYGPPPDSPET
TEST PROTOCOL: Enzymatic activity of the catalytic domain of human stromelysin (fluorogenic substrate)
PARTICULARS: pH=6.5, 15 min preincubation, fluorescence 328 nm (ex)/393 nm (em)
MEASURE NAME: IC50 (nM)

O=C(O)[C@H](Cc1cn(S(=O)(=O)c2ccc(Oc3ccccc3)cc2)cn1)NS(=O)(=O)c1ccc(Oc2ccccc2)cc1; 1000
O=C(CC[C@H](NS(=O)(=O)c1ccc(-c2ccccc2)cc1)C(=O)O)Nc1ccccc1; 20
COc1ccc(CC(NS(=O)(=O)c2ccc(-c3ccc(N(C)C)cc3)cc2)C(=O)O)cc1OC (racemic); 100
O=C(CCC(NS(=O)(=O)c1ccc(-c2ccc(Cl)cc2)cc1)C(=O)O)Nc1ccccc1 (racemic); 10
O=C(CC[C@H](NS(=O)(=O)c1ccc(-c2ccccc2)cc1)C(=O)O)Nc1ccncc1; 1000

a = O=C(CC[C@H](NS(=O)(=O)c1ccc(-c2ccccc2)cc1)C(=O)O)Nc1ccccc1Cl
b = O=C(CC[C@H](NS(=O)(=O)c1ccc(-c2ccc(Cl)cc2)cc1)C(=O)O)Nc1ccc(F)cc1
Request: Hey, which is lower on measured IC50, a or b ? Pick one; state its label.
Response: b
(b: 30 nM, a: 100 nM)

P = O=C(O)CC[C@@H](NS(=O)(=O)c1ccc(-c2ccccc2)cc1)C(=O)O
Q = O=C(O)[C@H]1C[C@@H](O)CN1S(=O)(=O)c1ccc(-c2ccc(Cl)cc2)cc1
R = CSCC[C@H](NC(=O)CC[C@H](NS(=O)(=O)c1ccc(-c2ccc(N(C)C)cc2)cc1)C(=O)O)C(=O)O
S = O=C(O)C1CCCCN1S(=O)(=O)c1ccc(-n2nccn2)cc1 (racemic)
T = CNC(=O)c1ccc(NC(=O)CC[C@H](NS(=O)(=O)c2ccc(-c3ccccc3)cc2)C(=O)O)cc1
Request: Rank ascending by IC50. Please express your ranking as an ordered list of the labels.
Response: R, Q, P, T, S

====

TESTED SYSTEM: stromelysin (MMP-3) (Homo sapiens)
Construct: enzymatic activity of the catalytic domains of human stromelysin and of neutrophil collagenase
TEST PROTOCOL: Enzymatic activity of the catalytic domain of human stromelysin (fluorogenic substrate)
PARTICULARS: pH=6.5, 15 min preincubation, fluorescence 328 nm (ex)/393 nm (em)
MEASURE NAME: IC50 (nM)

Examples with answers:
NC(=O)C[C@@H](NS(=O)(=O)c1ccc(-c2ccc(Cl)cc2)cc1)C(=O)O; 90
CN(C)c1ccc(-c2ccc(S(=O)(=O)N[C@H](Cc3c[nH]c4ccccc34)C(=O)O)cc2)cc1; 20
O=C(O)C[C@H](NS(=O)(=O)c1ccc(-c2ccc(Cl)cc2)cc1)C(=O)OCc1ccccc1; 400

I = O=C(O)CC[C@H](NS(=O)(=O)c1ccc(-c2ccccc2)cc1)C(=O)O
II = O=C(O)[C@@H](Cc1c[nH]c2ccccc12)NS(=O)(=O)c1ccc(-c2ccc(Cl)cc2)cc1
Request: Param pair: I , II . Output: the one whose IC50 is numerically greater. Pick one; state its label.
Response: I

P = NC(=O)CC[C@@H](NS(=O)(=O)c1ccc(-c2ccccc2)cc1)C(=O)O
Q = O=C(O)[C@@H](Cc1c[nH]c2ccccc12)NS(=O)(=O)c1ccc(-n2nccn2)cc1
Request: Param pair: P , Q . Output: the one whose IC50 is numerically greater. Pick one; state its label.
Response: P

====

TESTED SYSTEM: stromelysin (MMP-3) (Homo sapiens)
Construct: enzymatic activity of the catalytic domains of human stromelysin and of neutrophil collagenase
TEST PROTOCOL: Enzymatic activity of the catalytic domain of human stromelysin (fluorogenic substrate)
PARTICULARS: pH=6.5, 15 min preincubation, fluorescence 328 nm (ex)/393 nm (em)
MEASURE NAME: IC50 (nM)

C=CC(NS(=O)(=O)c1ccc(-c2ccc(Cl)cc2)cc1)C(=O)O (racemic) [Example 6]; 200
O=C(O)C(Cc1c[nH]c2ccc(F)cc12)NS(=O)(=O)c1ccc(-c2ccc(N3CCCC3)cc2)cc1 (racemic) [Example 78]; 20

1 = O=C(CCC(NS(=O)(=O)c1ccc(-c2ccc(N3CCCC3)cc2)cc1)C(=O)O)Nc1ccccc1 (racemic) [Example 76]
2 = O=C(O)[C@@H](NS(=O)(=O)c1ccc(Oc2ccccc2)cc1)[C@@H](O)c1ccc2c(c1)OCO2 (racemic) [Example 35]
Request: Hey, which is lower on measured IC50, 1 or 2 ? Pick one; state its label.
Response: 1
(1: 5 nM, 2: 100 nM)

====

TESTED SYSTEM: stromelysin (MMP-3) (Homo sapiens, UniProt P08254)
Construct: enzymatic activity of the catalytic domains of human stromelysin and of neutrophil collagenase
TEST PROTOCOL: Enzymatic activity of the catalytic domain of human stromelysin (fluorogenic substrate)
PARTICULARS: pH=6.5, 15 min preincubation, fluorescence 328 nm (ex)/393 nm (em)
MEASURE NAME: IC50 (nM)

Examples with answers:
O=C(CC[C@H](NS(=O)(=O)c1ccc(-c2ccccc2)cc1)C(=O)O)Nc1ccc(F)cc1; 300
O=C(O)[C@H](CSCc1ccccc1)NS(=O)(=O)c1ccc(-c2ccc(Cl)cc2)cc1; 200
N#Cc1ccc(NC(=O)CC[C@H](NS(=O)(=O)c2ccc(-c3ccccc3)cc2)C(=O)O)cc1; 300

1 = CSCC[C@@H](NS(=O)(=O)c1ccc(-n2nccn2)cc1)C(=O)O
2 = O=C(O)[C@H](CO)NS(=O)(=O)c1ccc(Oc2ccccc2)cc1
3 = O=C(O)C(NS(=O)(=O)c1ccc(-c2ccc(Cl)cc2)cc1)C(O)c1cccs1 (stereo not drawn)
Request: Put the items in sequence by IC50, from largest down. Please express your ranking as an ordered list of the labels.
Response: 1, 2, 3

====

TESTED SYSTEM: neutrophil collagenase (MMP-8) (Homo sapiens, UniProt P22894)
Construct: enzymatic activity of the catalytic domains of human stromelysin and of neutrophil collagenase
Sequence (P22894 100-262 limits assumed): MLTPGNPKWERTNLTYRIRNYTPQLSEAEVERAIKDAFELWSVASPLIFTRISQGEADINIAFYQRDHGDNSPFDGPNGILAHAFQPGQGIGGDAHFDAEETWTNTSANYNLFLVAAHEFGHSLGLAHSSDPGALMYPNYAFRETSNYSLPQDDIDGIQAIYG
TEST PROTOCOL: Enzymatic activity of the catalytic domain of neutrophil collagenase (fluorogenic substrate)
PARTICULARS: pH=6.5, 15 min preincubation, fluorescence 328 nm (ex)/393 nm (em), read-out: Neutr. collagenase IC50
Method: Preparation and determination of the enzymatic activity of the catalytic domains of human stromelysin and of neutrophil collagenase: The enzymes stromelysin (MMP-3) and neutrophil collagenase (MMP-8) were prepared according to Ye et al. (Biochemistry; 31 (1992) pages 11231–11235). […] After addition of 10 μl of a 10% strength (v/v) aqueous dimethyl sulfoxide solution which contains 1 mmol/L of the substrate, the enzyme reaction is monitored by fluorescence spectroscopy (328 nm (ex)/393 nm(em)). […]
MEASURE NAME: IC50 (nM)

CN(C)c1ccc(-c2ccc(S(=O)(=O)N[C@H](Cc3c[nH]c4ccccc34)C(=O)O)cc2)cc1 [Example 66]; 2
C[C@H](O)[C@H](NS(=O)(=O)c1ccc(Oc2ccccc2)cc1)C(=O)O [Example 9]; 20
CSCC[C@@H](NS(=O)(=O)c1ccc(-c2ccc(Cl)cc2)cc1)C(=O)O [Example 10]; 10
CN(C)c1ccc(-c2ccc(S(=O)(=O)N[C@@H](CCC(=O)Nc3ccccc3)C(=O)O)cc2)cc1 [Example 81]; 2
O=C(CC[C@H](NS(=O)(=O)c1ccc(-c2ccccc2)cc1)C(=O)O)Nc1ccc(F)cc1 [Example 91]; 10
N#Cc1ccc(NC(=O)CC[C@H](NS(=O)(=O)c2ccc(-c3ccccc3)cc2)C(=O)O)cc1 [Example 86]; 10
CSCC[C@H](NC(=O)CC[C@H](NS(=O)(=O)c1ccc(-c2ccc(N(C)C)cc2)cc1)C(=O)O)C(=O)O [Example 62]; 2
O=C(O)[C@H](CSCc1ccccc1)NS(=O)(=O)c1ccc(-c2ccc(Cl)cc2)cc1 [Example 32]; 40
COC(=O)c1ccc(NC(=O)CC[C@H](NS(=O)(=O)c2ccc(-c3ccccc3)cc2)C(=O)O)cc1 [Example 84]; 2
O=C(O)[C@@H](Cc1c[nH]c2ccccc12)NS(=O)(=O)c1ccc(-c2ccc(N3CCCC3)cc2)cc1 [Example 71]; 2

I = O=C(O)[C@@H](Cc1ccccc1)NS(=O)(=O)c1ccc(-c2ccc(C(F)(F)F)cc2)cc1 [Example 20]
II = O=C(CC[C@H](NS(=O)(=O)c1ccc(-c2ccc(Cl)cc2)cc1)C(=O)O)Nc1ccc(F)cc1 [Example 87]
III = O=C(CCC(NS(=O)(=O)c1ccc(-c2ccc(N3CCCC3)cc2)cc1)C(=O)O)Nc1ccccc1 (racemic) [Example 76]
IV = O=C(CC[C@H](NS(=O)(=O)c1ccc(-c2ccc(N3CCCC3)cc2)cc1)C(=O)O)Nc1ccccc1 [Example 80]
Request: Rank ascending by IC50. Please express your ranking as an ordered list of the labels.
Response: IV, III, II, I

I = O=C(O)[C@H](CCc1nc2ccccc2[nH]1)NS(=O)(=O)c1ccc(-c2ccccc2)cc1 [Example 93]
II = NC(=O)CC[C@@H](NS(=O)(=O)c1ccc(-c2ccc(Cl)cc2)cc1)C(=O)O [Example 51]
Request: Hey, which is lower on measured IC50, I or II ? Pick one; state its label.
Response: II
(II: 5 nM, I: 20 nM)

A = O=C(CC[C@H](NS(=O)(=O)c1ccc(-c2ccccc2)cc1)C(=O)O)Nc1ccc([N+](=O)[O-])cc1 [Example 75]
B = O=C(O)[C@H]1C[C@@H](O)CN1S(=O)(=O)c1ccc(-c2ccc(Cl)cc2)cc1 [Example 2]
C = O=C(O)CNS(=O)(=O)c1ccc(Oc2ccc(Cl)cc2)cc1 [Example 3]
Request: Put the items in sequence by IC50, from largest down. Please express your ranking as an ordered list of the labels.
Response: C, B, A
